For each of the variants below, state its polymerase ribozyme fitness (log ratio).
B1: TPR t1 (parent)
chain: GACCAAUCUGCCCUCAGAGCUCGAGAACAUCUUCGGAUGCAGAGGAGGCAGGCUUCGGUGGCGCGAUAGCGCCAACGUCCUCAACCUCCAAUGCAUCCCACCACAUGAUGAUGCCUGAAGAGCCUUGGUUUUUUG

Variants of: B1
Test: polymerase ribozyme fitness, log enrichment relative to wild type (log ratio); higher = more active; in vitro selection for triplet polymerase activity

Look up polymerase ribozyme fitness (log ratio): C4G A5U
-2.76

Follow-up item: C11U U38A G120C
0.779

Now the variant G58C A90U U109A C114U
-5.55

Item: U32C G63U G113U
-4.99

Would you kindly repeat that for G51A C56U A84U C99U A121U ?
-5.26

Item: A37U G69A G77A A90U C123U
-5.05

# iterate: U78A G113C
-2.57

Next: C8A C11A C82A G93A
-0.542

Entry C40A G52A G60A U81C A95U please
-3.45

Now consider C12A G77U C82U .
-1.87

Entry to check: A27G A84C C99U
-5.83

Proceed to A2C G39U
-2.12

Please give the result for U78G C98U too.
-0.646

Here is the next variant: G19C G36C G71U U112G U116C
-3.91

Query A5U C80G next
-5.2

Param item: C76G C99A U112A
-4.02

Consider next the variant A105U C124U in the same way.
-0.354

Note, next up: C40U A84C U112A
0.737

Then this variant: U55G C115U
-0.797

Another variant to look at: C8G C56G C89A A90C G107C G117C
-5.56

Would you kindly repeat that for C15A U33C C70U A111U ?
-5.94

Try C3U G48C C76A C79A C101G next.
-4.45

Item: G48A C62A
-2.76

Follow-up item: G69C G71U C97A A108C U109A
-5.19

Can you handle G60C C123A next?
-0.064

Repeat for the following variant: C98A C104U
-4.88

Try this variant next: U33A C72G
-5.17

Repeat with C22U A26U C53U G69C A119G
-6.14

And for A95C U116C U129A U131C G135U ?
-3

One more variant: A18U U30A A37G A108U
-3.64

And for A100C C104U ?
-0.176

Now try G48A A50G G69U C76A U78C .
-2.05

Now the same for C28U C62A
-2.73

Same for C73G C124A U130G
1.1

Another variant to look at: C13U C28G A43G C62U G110C
-1.17

Request: U54G C114A
-1.69

Another variant to look at: C40U G60C C82U A90G A95U C97A C123G
-7.02

Quick one: C8G G47C C82U
-1.06

Subsequent entry: G63A C73A C114G
-5.85

Now try C8A C12U A46C G93A C115A .
0.651

Queued: C12U C56A C73A U78C A111G U129G
-1.25

Param item: `G57C`
-0.176

Try this variant too: G61C C104U G110A
-2.86

Try this variant next: A18G G39A C64A A90G G120C
-5.87

Please give the result for U7A C8A G19U C97G A105G C124U too.
-7.51

And A43U G77U C88G ?
-2.17
